details: in acetone, 283.15 K
measurement-label: solubility (mole fraction)
One number for each entry.

For the compound "NC(N)=NCCC[C@H](NC(=O)OCc1ccccc1)C(=O)O" , what solubility (mole fraction) is on record? 2.5e-05

====

settings: in DMF, 283.15 K
measurement-label: solubility (mole fraction)

For the compound "NC(N)=NCCC[C@H](NC(=O)OCc1ccccc1)C(=O)O" , what solubility (mole fraction) is on record? 0.00164

====

details: in acetonitrile, 303.15 K
measurement-label: solubility (mole fraction)
Numbers only.

For the compound "NC(N)=NCCC[C@H](NC(=O)OCc1ccccc1)C(=O)O" , what solubility (mole fraction) is on record? 3.52e-05
